- method: forskolin-driven CRE-LacZ activity in PC12 – cell-based, CRE-LacZ reporter, forskolin-stimulated, primary screen (AID 1146);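 further: PC12 cells with 6xCRE LacZ reporter stimulated by forskolin 10 µM; beta-galactosidase reporter signal reflecting CREB driven transcription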
- runConditions: luminescence, 4.5 h, higher = more signal, called active from +8 up or from −8 down
Assign Satisfied to entries whose z-score meets or exceeds 0.4; assign Not satisfied to the rest.

compound	assignedCategory
CN(C)CCCCCCNC(=O)[C@@H]1C[C@@H]2C(=O)N[C@@H](CCCC[N+](C)(C)C)C(=O)N2[C@@H]1c1ccc(O)cc1	Not satisfied
C=CC[C@@]1(C(=O)N2CCCCC2)N=C(c2ccc(OCCCO)cc2)O[C@@H]1c1ccccc1CN=[N+]=[N-]	Satisfied
CCN(CC)c1ccc(N2CC=CC34O[C@@H]5C=CCOC(=O)[C@@H]5[C@H]3C(=O)N(CCCCCCO)[C@@H]4C2=O)cc1 (stereo not given in full)	Not satisfied
COC(=O)c1c(CC[C@@H](CO)NC(=O)N[C@@H](Cc2ccccc2)Cn2cc(-c3ccccn3)nn2)oc(C(=O)N2CCOCC2)c1C(=O)OC	Not satisfied
CO[C@H]1O[C@H](CO)[C@@H](OC(=O)Nc2ccccc2)[C@@H]2OC(=O)[C@@H](Cc3ccc4ccccc4c3)C/C=C/C[C@H](Cc3ccc4ccccc4c3)C(=O)O[C@@H]12	Not satisfied
COc1ccc(-c2cc3c(c(Cc4ccccc4)n2)[Si](C(C)C)(C(C)C)OC3)cn1	Satisfied
CC[C@@H]1C=C(C(=O)O)[C@H](c2ccc(C)cc2)N1S(=O)(=O)c1ccc(C)cc1	Satisfied
CC(c1ccccc1)C(O)C1C=CC2C(=O)N(c3ccccc3)C(=O)C2N1Nc1ccccc1 (stereo not given)	Not satisfied
COCCCNC(=O)[C@]1(Cc2ccccc2)N=C(c2ccc(OCCCO)cc2)O[C@@H]1c1ccccc1CN=[N+]=[N-]	Not satisfied
C#CCN(C/C=C/c1ccccc1)[C@H](CO)c1ccccc1	Not satisfied
COCCOC(=O)N1C(=O)[C@@]2(c3cc(C#CC4=CCCCC4)ccc31)[C@H](C(N)=O)[C@H]1C(=O)O[C@H](c3ccccc3)[C@H](c3ccccc3)N1[C@@H]2c1ccc(O)cc1	Not satisfied
O=C(O)[C@@]1(CCS(=O)(=O)c2ccccc2)N=C(c2ccc(OCCCO)cc2)O[C@H]1c1ccccc1	Not satisfied
COC(=O)c1c2oc(c1C(=O)OC)C(=O)NC1(CCCCC1)c1cn(nn1)C[C@H](Cc1ccccc1)NC(=O)N[C@H](CO)CC2	Not satisfied
CCCCC(O)C1C=CC2C(=O)N(C)C(=O)C2N1N1CCCCC1 (stereo not given)	Satisfied
COc1ccc(C(=O)Nc2cccc(CN3C(=O)[C@]4(O[C@H](CCn5cc(CCO)nn5)[C@@H]([Si](C)(C)c5ccc(OC)cc5)[C@@H]4C)c4ccccc43)c2)cc1	Not satisfied

----------
Each entry below lists one item and its recorded composite z-score value.
- method: probe aEGFR binding to arrayed compounds – biochemical, biotinylated probe, 635/667 nm fluorescence, primary screen (AID 1097);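 further: probe is a biotinylated anti-EGFR antibody binding compounds printed on slides; score combines fluorescence near 667 nm and signal to noise of each spot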
- runConditions: small-molecule microarray, higher = more signal

compound	composite z-score
CC(C)NC(=O)[C@@H]1c2ccccc2C(=O)N(C(C)C)[C@H]1c1ccc(CO)cc1	-0.44
O=C1NC(=O)C2C1C=CC(C(O)c1ccc(I)cc1)N2Nc1ccc(Cl)cc1Cl (centres undefined)	-0.0953
CS(=O)(=O)CCOC(=O)C1=CC(CCCO)=CC(c2ccc(CN3CCCC3)cc2)N(Cc2cccc(OC(F)(F)F)c2)C=C1C(=O)OCCS(C)(=O)=O (centres undefined)	0.172
O=C1OCCC=C[C@H]2OC34C=CCN(c5ccc(Cl)cc5)C(=O)[C@H]3N(CCCO)C(=O)[C@@H]4C12 (some centres undefined)	-0.116
